// provenance: patent US20100055169A1

# PROCEDURE TEXT: RiboGreen assay of siRNA encapsulation efficiency, in vitro formulations of Lipid-Based Particles
# Format: physicochemical
# APPLIED CONDITIONS: in vitro formulation b: Cationic lipid/PEG-cholesterol/DSPC/Chol 45/10/15/30 wt %, lipid:siRNA 25:1
Hi there, I'd appreciate the recorded % Encapsulation Efficiency for every entry that follows.
Remember to follow the number with its unit.

Determine its reported % Encapsulation Efficiency: CCCCC/C=C\C/C=C\CCCCCCCCOCC(CCN1CCC1)OCCCCCCCC/C=C\C/C=C\CCCCC (stereo not shown) [Example 49]
99%

Determine its reported % Encapsulation Efficiency: CCCCC/C=C\C/C=C\CCCCCCCCOCC(CCOCCN1CCCC1)OCCCCCCCC/C=C\C/C=C\CCCCC (stereo not shown) [Example 31]
96.2%

Determine its reported % Encapsulation Efficiency: CCCCC/C=C\C/C=C\CCCCCCCCC1(CCCCCCC/C=C\C/C=C\CCCCC)OCC(CCN(CC)CC)O1 (stereo not shown) [Example 32]
98.6%

Determine its reported % Encapsulation Efficiency: CCCCC/C=C\C/C=C\CCCCCCCCOCC(CCN1CCCC1)OCCCCCCCC/C=C\C/C=C\CCCCC (stereo not shown) [Example 24]
97.0%
